Catalogue of molecules with associated susceptibility, %
- Test system: Klebsiella isolates
- methodNotes: Antibiotic susceptibility of Klebsiella clinical isolates per 7-SNP clonotype (Lookup Table 1; disk diffusion)
- Assay type: cell-based, Klebsiella spp.
- experimentalSetup: CT 511
propertyMeasured: susceptibility, % (%)

{"smilesNotation": "O=C1CN(/N=C/c2ccc([N+](=O)[O-])o2)C(=O)N1", "propertyMeasured": "susceptibility, %", "unitText": "%", "measValue": 100}
{"smilesNotation": "CN(C)[C@@H]1C(O)=C(C(N)=O)C(=O)[C@@]2(O)C(O)=C3C(=O)c4c(O)cccc4[C@@](C)(O)[C@H]3C[C@@H]12", "propertyMeasured": "susceptibility, %", "unitText": "%", "measValue": 100}
{"smilesNotation": "C[C@@H]1O[C@@H]1P(=O)(O)O", "propertyMeasured": "susceptibility, %", "unitText": "%", "measValue": 100}
{"smilesNotation": "CC1(C)S[C@@H]2[C@H](NC(=O)[C@H](N)c3ccccc3)C(=O)N2[C@H]1C(=O)O", "propertyMeasured": "susceptibility, %", "unitText": "%", "measValue": 0}
{"smilesNotation": "C[C@@H](O)[C@H]1C(=O)N2C(C(=O)O)=C(SCCN=CN)C[C@H]12", "propertyMeasured": "susceptibility, %", "unitText": "%", "measValue": 100}

###

Catalogue of compounds with associated susceptibility, %
- Tested on: Klebsiella isolates
- methodNotes: Antibiotic susceptibility of Klebsiella clinical isolates per 7-SNP clonotype (Lookup Table 1; disk diffusion)
- Type: cell-based, Klebsiella spp.
- experimentalSetup: CT 311

{"smilesNotation": "C[C@@H](O)[C@H]1C(=O)N2C(C(=O)O)=C(SCCN=CN)C[C@H]12", "susceptibility, %": "100%"}
{"smilesNotation": "CC1(C)S[C@@H]2[C@H](NC(=O)[C@H](N)c3ccccc3)C(=O)N2[C@H]1C(=O)O", "susceptibility, %": "0%"}
{"smilesNotation": "O=C1CN(/N=C/c2ccc([N+](=O)[O-])o2)C(=O)N1", "susceptibility, %": "60%"}
{"smilesNotation": "CN(C)[C@@H]1C(O)=C(C(N)=O)C(=O)[C@@]2(O)C(O)=C3C(=O)c4c(O)cccc4[C@@](C)(O)[C@H]3C[C@@H]12", "susceptibility, %": "80%"}
{"smilesNotation": "C[C@@H]1O[C@@H]1P(=O)(O)O", "susceptibility, %": "35%"}

###

- System: Klebsiella isolates
- methodNotes: Antibiotic susceptibility of Klebsiella clinical isolates per 7-SNP clonotype (Lookup Table 1; disk diffusion)
- Type: cell-based, Klebsiella spp.
- experimentalSetup: CT 110
propertyMeasured: susceptibility, % (%)

{"compound": "C[C@@H](O)[C@H]1C(=O)N2C(C(=O)O)=C(SCCN=CN)C[C@H]12 [IMI, imipenem]", "propertyMeasured": "susceptibility, %", "measValue": 100}
{"compound": "O=C1CN(/N=C/c2ccc([N+](=O)[O-])o2)C(=O)N1 [NIT, nitrofurantoin]", "propertyMeasured": "susceptibility, %", "measValue": 0}
{"compound": "CN(C)[C@@H]1C(O)=C(C(N)=O)C(=O)[C@@]2(O)C(O)=C3C(=O)c4c(O)cccc4[C@@](C)(O)[C@H]3C[C@@H]12 [TET, tetracycline]", "propertyMeasured": "susceptibility, %", "measValue": 100}
{"compound": "CC1(C)S[C@@H]2[C@H](NC(=O)[C@H](N)c3ccccc3)C(=O)N2[C@H]1C(=O)O [AMP, ampicillin]", "propertyMeasured": "susceptibility, %", "measValue": 0}
{"compound": "C[C@@H]1O[C@@H]1P(=O)(O)O [FOS, fosfomycin]", "propertyMeasured": "susceptibility, %", "measValue": 0}

###

- System: Klebsiella isolates
- methodNotes: Antibiotic susceptibility of Klebsiella clinical isolates per 7-SNP clonotype (Lookup Table 1; disk diffusion)
- Format: cell-based, Klebsiella spp.
- experimentalSetup: CT 301
- Procedure: In further embodiments, the Lookup Table is Lookup Table 1. The information contained in Lookup Table 1 below was obtained from urine specimens from patients with Klebsiella infections from several clinics within different regions of the United States. CT=clonotypes determined using a 7-SNP combination: phoE54; rpoB130; infB279; mdh315; phoE336; phoE354; and mdh429. Next, antibiotic resistance was determined for all 387 Klebsiella isolates in the discovery set. […]
Catalogue of compounds with associated susceptibility, %
propertyMeasured: susceptibility, %

{"compound": "CN(C)[C@@H]1C(O)=C(C(N)=O)C(=O)[C@@]2(O)C(O)=C3C(=O)c4c(O)cccc4[C@@](C)(O)[C@H]3C[C@@H]12 [TET, tetracycline]", "targetUnderTest": "Klebsiella isolates", "measValue": "88%"}
{"compound": "C[C@@H]1O[C@@H]1P(=O)(O)O [FOS, fosfomycin]", "targetUnderTest": "Klebsiella isolates", "measValue": "24%"}
{"compound": "O=C1CN(/N=C/c2ccc([N+](=O)[O-])o2)C(=O)N1 [NIT, nitrofurantoin]", "targetUnderTest": "Klebsiella isolates", "measValue": "64%"}
{"compound": "C[C@@H](O)[C@H]1C(=O)N2C(C(=O)O)=C(SCCN=CN)C[C@H]12 [IMI, imipenem]", "targetUnderTest": "Klebsiella isolates", "measValue": "100%"}
{"compound": "CC1(C)S[C@@H]2[C@H](NC(=O)[C@H](N)c3ccccc3)C(=O)N2[C@H]1C(=O)O [AMP, ampicillin]", "targetUnderTest": "Klebsiella isolates", "measValue": "0%"}

###

- Test system: Klebsiella isolates
- methodNotes: Antibiotic susceptibility of Klebsiella clinical isolates per 7-SNP clonotype (Lookup Table 1; disk diffusion)
- Format: cell-based, Klebsiella spp.
- experimentalSetup: CT 651

{"molecule": "C[C@@H](O)[C@H]1C(=O)N2C(C(=O)O)=C(SCCN=CN)C[C@H]12 [IMI, imipenem]", "targetUnderTest": "Klebsiella isolates", "susceptibility, % / %": 100}
{"molecule": "C[C@@H]1O[C@@H]1P(=O)(O)O [FOS, fosfomycin]", "targetUnderTest": "Klebsiella isolates", "susceptibility, % / %": 24}
{"molecule": "O=C1CN(/N=C/c2ccc([N+](=O)[O-])o2)C(=O)N1 [NIT, nitrofurantoin]", "targetUnderTest": "Klebsiella isolates", "susceptibility, % / %": 35}
{"molecule": "CC1(C)S[C@@H]2[C@H](NC(=O)[C@H](N)c3ccccc3)C(=O)N2[C@H]1C(=O)O [AMP, ampicillin]", "targetUnderTest": "Klebsiella isolates", "susceptibility, % / %": 4}
{"molecule": "CN(C)[C@@H]1C(O)=C(C(N)=O)C(=O)[C@@]2(O)C(O)=C3C(=O)c4c(O)cccc4[C@@](C)(O)[C@H]3C[C@@H]12 [TET, tetracycline]", "targetUnderTest": "Klebsiella isolates", "susceptibility, % / %": 92}

###

- Test system: Klebsiella isolates
- methodNotes: Antibiotic susceptibility of Klebsiella clinical isolates per 7-SNP clonotype (Lookup Table 1; disk diffusion)
- Format: cell-based, Klebsiella spp.
- experimentalSetup: CT 160
Catalogue of molecules with associated susceptibility, %

{"smilesNotation": "O=C1CN(/N=C/c2ccc([N+](=O)[O-])o2)C(=O)N1", "unitText": "%", "susceptibility, %": 0}
{"smilesNotation": "C[C@@H](O)[C@H]1C(=O)N2C(C(=O)O)=C(SCCN=CN)C[C@H]12", "unitText": "%", "susceptibility, %": 100}
{"smilesNotation": "CN(C)[C@@H]1C(O)=C(C(N)=O)C(=O)[C@@]2(O)C(O)=C3C(=O)c4c(O)cccc4[C@@](C)(O)[C@H]3C[C@@H]12", "unitText": "%", "susceptibility, %": 100}
{"smilesNotation": "C[C@@H]1O[C@@H]1P(=O)(O)O", "unitText": "%", "susceptibility, %": 0}
{"smilesNotation": "CC1(C)S[C@@H]2[C@H](NC(=O)[C@H](N)c3ccccc3)C(=O)N2[C@H]1C(=O)O", "unitText": "%", "susceptibility, %": 0}

###

- Test system: Klebsiella isolates
- methodNotes: Antibiotic susceptibility of Klebsiella clinical isolates per 7-SNP clonotype (Lookup Table 1; disk diffusion)
- Type: cell-based, Klebsiella spp.
- experimentalSetup: CT 071

{"smilesNotation": "CN(C)[C@@H]1C(O)=C(C(N)=O)C(=O)[C@@]2(O)C(O)=C3C(=O)c4c(O)cccc4[C@@](C)(O)[C@H]3C[C@@H]12", "susceptibility, %, %": 80}
{"smilesNotation": "O=C1CN(/N=C/c2ccc([N+](=O)[O-])o2)C(=O)N1", "susceptibility, %, %": 60}
{"smilesNotation": "C[C@@H](O)[C@H]1C(=O)N2C(C(=O)O)=C(SCCN=CN)C[C@H]12", "susceptibility, %, %": 100}
{"smilesNotation": "C[C@@H]1O[C@@H]1P(=O)(O)O", "susceptibility, %, %": 80}
{"smilesNotation": "CC1(C)S[C@@H]2[C@H](NC(=O)[C@H](N)c3ccccc3)C(=O)N2[C@H]1C(=O)O", "susceptibility, %, %": 0}
